- SYSTEM_UNDER_TEST: T1, ActRIIB-Fc homodimer (human, UniProt Q13705 19-137)
- T1 construct: extracellular domain; also called unmodified ActRIIB-Fc homodimer; ActRIIB-Fc:ActRIIB-Fc homodimer
- T1 sequence (looked up): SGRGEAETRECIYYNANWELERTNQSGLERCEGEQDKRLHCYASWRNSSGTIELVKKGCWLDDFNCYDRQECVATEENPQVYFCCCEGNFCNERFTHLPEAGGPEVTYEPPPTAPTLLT
- ASSAY_COMMENT: SPR (Biacore), anti-Fc capture, ligand in flow
READOUT_TYPE: koff (s⁻¹)
All answers are understood in s⁻¹, so give the number only.

Observe how each entry below is paired with its result.
- BINDER: "BMP9 (ligand, UniProt Q9UK05 320-429, looked up, also called GDF2) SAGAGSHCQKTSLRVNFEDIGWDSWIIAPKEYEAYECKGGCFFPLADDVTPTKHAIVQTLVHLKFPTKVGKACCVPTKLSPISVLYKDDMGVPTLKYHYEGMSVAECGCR"
  koff / s⁻¹: 0.001
- BINDER: "GDF3 (ligand, UniProt Q9NR23 251-364, looked up, also called VGR2) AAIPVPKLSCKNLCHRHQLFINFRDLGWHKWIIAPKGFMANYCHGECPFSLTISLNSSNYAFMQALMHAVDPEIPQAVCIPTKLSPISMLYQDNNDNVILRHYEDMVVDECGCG"
  koff / s⁻¹: 0.0022
- BINDER: "GDF11 (ligand, UniProt O95390 299-407, looked up, also called BMP11) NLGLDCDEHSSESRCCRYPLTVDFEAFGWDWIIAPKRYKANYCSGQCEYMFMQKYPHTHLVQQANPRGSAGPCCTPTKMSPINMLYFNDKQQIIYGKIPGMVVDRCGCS"
  koff / s⁻¹: 0.00015
- BINDER: "activin B (ligand, UniProt P09529 293-407, looked up) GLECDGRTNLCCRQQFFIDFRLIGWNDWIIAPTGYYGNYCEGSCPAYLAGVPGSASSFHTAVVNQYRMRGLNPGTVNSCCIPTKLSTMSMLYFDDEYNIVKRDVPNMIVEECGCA"
  koff / s⁻¹: 0.00016
- BINDER: "BMP10 (ligand, UniProt O95393 317-424, looked up) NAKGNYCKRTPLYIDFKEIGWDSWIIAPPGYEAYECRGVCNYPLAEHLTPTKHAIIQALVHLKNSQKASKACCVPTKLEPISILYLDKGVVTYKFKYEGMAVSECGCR"
  koff / s⁻¹: 0.00015

// below: koff requested for another binder
Challenge: // koff lookup, key: activin A (ligand, UniProt P08476 311-426, looked up) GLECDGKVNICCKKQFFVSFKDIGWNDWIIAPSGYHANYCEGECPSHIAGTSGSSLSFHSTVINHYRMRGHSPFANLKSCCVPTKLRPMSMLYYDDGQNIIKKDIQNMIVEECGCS
Response given: 0.00014
